The reader will find reported AC50 values listed item by item below.
- targetOfAssay: Thromboxane A2 receptor (Homo sapiens, UniProt P21731); further: assay procedure not described here
- Sequence (P21731 whole entry): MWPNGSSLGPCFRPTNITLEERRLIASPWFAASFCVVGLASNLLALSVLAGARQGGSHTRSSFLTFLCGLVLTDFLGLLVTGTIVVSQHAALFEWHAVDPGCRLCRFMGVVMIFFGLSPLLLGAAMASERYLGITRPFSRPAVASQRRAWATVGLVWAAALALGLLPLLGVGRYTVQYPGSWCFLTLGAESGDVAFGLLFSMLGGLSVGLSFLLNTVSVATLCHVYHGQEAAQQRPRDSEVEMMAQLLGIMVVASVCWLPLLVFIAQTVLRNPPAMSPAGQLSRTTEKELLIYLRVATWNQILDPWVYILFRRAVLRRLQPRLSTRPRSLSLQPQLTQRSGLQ

{"compound": "CN1Cc2c(N)cccc2C(c2ccccc2)C1 (stereo not drawn) [NOMIFENSINE]", "AC50": "> 30 µM"}
{"compound": "O=C(O)COCCN1CCN(C(c2ccccc2)c2ccc(Cl)cc2)CC1 (stereo not drawn) [CETIRIZINE]", "AC50": "> 30 µM"}
{"compound": "CC(=O)O[C@]1(C(C)=O)CC[C@H]2[C@@H]3C=C(Cl)C4=CC(=O)[C@@H]5C[C@@H]5[C@]4(C)[C@H]3CC[C@@]21C [CYPROTERONE ACETATE]", "AC50": "> 30 µM"}
{"compound": "CC(C)C[C@H](NC(=O)[C@@H](O)[C@H](N)Cc1ccccc1)C(=O)O [UBENIMEX]", "AC50": "> 30 µM"}
{"compound": "O=C1c2cccc3c2[C@H](CCC3)CN1[C@@H]1CN2CCC1CC2 [PALONOSETRON]", "AC50": "> 30 µM"}
{"compound": "CC(C)[C@H](N)C(=O)OCCOCn1cnc2c(=O)[nH]c(N)nc21 [VALACYCLOVIR]", "AC50": "> 30 µM"}
{"compound": "O=C(O)c1cccnc1Nc1cccc(C(F)(F)F)c1 [NIFLUMIC ACID]", "AC50": "> 10 µM"}
{"compound": "CC(C)N(CCCCOCC(=O)O)c1cnc(-c2ccccc2)c(-c2ccccc2)n1", "AC50": "28 µM"}
{"compound": "O=C(c1cc(Cc2n[nH]c(=O)c3ccccc23)ccc1F)N1CCN(C(=O)C2CC2)CC1 [OLAPARIB]", "AC50": "> 30 µM"}
{"compound": "O=C(O)CCNC(=O)c1ccc(/N=N/c2ccc(O)c(C(=O)O)c2)cc1 [BALSALAZIDE]", "AC50": "> 30 µM"}
{"compound": "Cc1cc(=O)n(-c2ccccc2)n1C [ANTIPYRINE]", "AC50": "> 30 µM"}
{"compound": "COC(=O)[C@H]1[C@H]2C[C@@H]3c4[nH]c5cc(OC)ccc5c4CCN3C[C@H]2C[C@@H](OC(=O)c2cc(OC)c(OC)c(OC)c2)[C@@H]1OC [RESERPINE]", "AC50": "> 10 µM"}
{"compound": "O=C1Nc2ccc(Cl)cc2C(c2ccccc2Cl)=NC1O (stereo not drawn) [LORAZEPAM]", "AC50": "> 30 µM"}
{"compound": "COc1cc(N)c(Cl)cc1C(=O)NC1CCN(CCCOc2ccc(F)cc2)CC1OC (stereo not drawn) [CISAPRIDE]", "AC50": "22.9 µM"}
{"compound": "CC(Cc1cccc(C(F)(F)F)c1)NCCOC(=O)c1ccccc1 (stereo not drawn) [BENFLUOREX]", "AC50": "> 30 µM"}
{"compound": "CCOC(=O)C1=C(C)NC(C)=C(C(=O)OCC)C1c1ccccc1/C=C/C(=O)OC(C)(C)C [LACIDIPINE]", "AC50": "> 30 µM"}
{"compound": "O=S1(=O)CCN(CN2CCS(=O)(=O)NC2)CN1 [TAUROLIDINE]", "AC50": "> 30 µM"}
{"compound": "CCOC(=O)c1ncn2c1CN(C)C(=O)c1cc(F)ccc1-2 [FLUMAZENIL]", "AC50": "> 30 µM"}
